- System: Escherichia coli
- assay-method-text: Antimicrobial activity against Escherichia coli isolate 329 expressing beta-lactamase KPC2, CTX-M-2, TEM and PFGE cluster 2 isolated from blood of patient by agar dilution method
- Assay type: functional
Each record here notes measured MIC.
property-label: MIC (µg/mL)

compound	property-label	experimental-result
C[C@@H](O)[C@H]1C(=O)N2C(C(=O)O)=C(SCCNC=N)C[C@H]12 [IMIPENEM ANHYDROUS]	MIC	8
C[C@@H](O)[C@H]1C(=O)N2C(C(=O)O)=C(S[C@@H]3CN[C@H](C(=O)Nc4cccc(C(=O)O)c4)C3)[C@H](C)[C@H]12	MIC	32
C[C@@H](O)[C@H]1C(=O)N2C(C(=O)O)=C(S[C@@H]3CN[C@H](CNS(N)(=O)=O)C3)[C@H](C)[C@H]12 [DORIPENEM]	MIC	4
C[C@@H](O)[C@H]1C(=O)N2C(C(=O)O)=C(S[C@@H]3CN[C@H](C(=O)N(C)C)C3)[C@H](C)[C@H]12 [MEROPENEM]	MIC	8

Just for reference, ChEMBL document CHEMBL1671686 is where these values come from.
